target: Cholecystokinin receptor type A (Homo sapiens); assay: Agonist activity at human CCK1R expressed in human 1321N1 cells assessed as IP1 accumulation after 1 hr by HTRF assay
Sequence (P32238 whole entry): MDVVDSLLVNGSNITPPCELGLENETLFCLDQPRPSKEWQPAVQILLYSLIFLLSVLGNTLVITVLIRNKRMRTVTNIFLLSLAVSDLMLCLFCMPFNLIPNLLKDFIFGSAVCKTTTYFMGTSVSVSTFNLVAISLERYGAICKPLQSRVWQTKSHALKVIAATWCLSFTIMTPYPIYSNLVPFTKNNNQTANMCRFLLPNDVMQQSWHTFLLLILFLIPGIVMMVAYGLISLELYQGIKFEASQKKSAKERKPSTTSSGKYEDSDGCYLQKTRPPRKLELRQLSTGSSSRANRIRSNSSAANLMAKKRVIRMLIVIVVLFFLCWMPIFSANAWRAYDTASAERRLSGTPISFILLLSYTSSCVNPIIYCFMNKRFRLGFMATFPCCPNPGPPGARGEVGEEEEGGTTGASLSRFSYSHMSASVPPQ
Numbered stars: 1 amine (or outer) side, 2 acyl side, 3 side chain; on linkers, the order of the positions; unused ones are H or OH. Square brackets hold non-standard residues; d marks the D form. Peptide text beside a SMILES is read from it. * marks the point of attachment. Phe(4-CH2SO3H) = N[C@@H](Cc1ccc(CS(=O)(=O)O)cc1)C(=O)O; C20 diacid = O=C(O)CCCCCCCCCCCCCCCCCCC(=O)*; sY = N[C@@H](Cc1ccc(OS(=O)(=O)O)cc1)C(=O)O; C18 diacid = O=C(O)CCCCCCCCCCCCCCCCC(=O)*; γGlu = O=C(O)[C@H](CCC(=O)[*:2])N[*:1]; C14 diacid = O=C(O)CCCCCCCCCCCCC(=O)*; NMeF = CN[C@@H](Cc1ccccc1)C(=O)O; dNMeD = CN[C@H](CC(=O)O)C(=O)O; Nle = CCCC[C@H](N)C(=O)O; X1 = O=C(Cc1ccc(O)cc1)*; AEEA = NCCOCCOCC(=O)O
Readout Kind: EC50 (pM)
A number alone suffices; assume pM.

A selection of reference data follows.
1. CCCC[C@H](NC(=O)[C@H](Cc1ccc(CS(=O)(=O)O)cc1)NC(=O)[C@H](CC(=O)O)NC(=O)COCCOCCNC(=O)COCCOCCNC(=O)CC[C@H](NC(=O)CCCCCCCCCCCCCCCCC(=O)O)C(=O)O)C(=O)NCC(=O)N[C@@H](Cc1c[nH]c2ccccc12)C(=O)N[C@@H](CCCC)C(=O)N(C)[C@H](CC(=O)O)C(=O)N(C)[C@@H](Cc1ccccc1)C(N)=O ({C18 diacid-γGlu-AEEA-AEEA}-D[Phe(4-CH2SO3H)][Nle]GW[Nle][dNMeD][NMeF]-NH2) ... 251
2. CCCC[C@H](NC(=O)Cc1ccc(O)cc1)C(=O)NCC(=O)N[C@@H](Cc1c[nH]c2ccccc12)C(=O)N[C@@H](CCCC)C(=O)N(C)[C@H](CC(=O)O)C(=O)N[C@@H](Cc1ccccc1)C(N)=O (X1-[Nle]GW[Nle][dNMeD]F-NH2) ... 1550

Item: CCCC[C@H](NC(=O)[C@H](Cc1c[nH]c2ccccc12)NC(=O)CNC(=O)[C@H](CC(C)C)NC(=O)[C@H](Cc1ccc(CS(=O)(=O)O)cc1)NC(=O)[C@H](CC(=O)O)NC(=O)COCCOCCNC(=O)COCCOCCNC(=O)CC[C@H](NC(=O)CCCCCCCCCCCCC(=O)O)C(=O)O)C(=O)N(C)[C@H](CC(=O)O)C(=O)N(C)[C@@H](Cc1ccccc1)C(N)=O ({C14 diacid-γGlu-AEEA-AEEA}-D[Phe(4-CH2SO3H)]LGW[Nle][dNMeD][NMeF]-NH2) | EC50: 182

Item: CCCC[C@H](NC(=O)[C@H](Cc1c[nH]c2ccccc12)NC(=O)CNC(=O)[C@H](CC(C)C)NC(=O)[C@H](Cc1ccc(CS(=O)(=O)O)cc1)NC(=O)[C@H](CC(=O)O)NC(=O)COCCOCCNC(=O)COCCOCCNC(=O)CC[C@H](NC(=O)CCCCCCCCCCCCCCCCCCC(=O)O)C(=O)O)C(=O)N(C)[C@H](CC(=O)O)C(=O)N(C)[C@@H](Cc1ccccc1)C(N)=O ({C20 diacid-γGlu-AEEA-AEEA}-D[Phe(4-CH2SO3H)]LGW[Nle][dNMeD][NMeF]-NH2) | EC50: 372

Item: CC(C)C[C@H](NC(=O)[C@H](Cc1ccc(OS(=O)(=O)O)cc1)NC(=O)[C@H](CC(=O)O)NC(=O)COCCOCCNC(=O)COCCOCCNC(=O)CC[C@H](NC(=O)CCCCCCCCCCCCCCCCC(=O)O)C(=O)O)C(=O)NCC(=O)N[C@@H](Cc1c[nH]c2ccccc12)C(=O)N[C@@H](CCC(N)=O)C(=O)N(C)[C@H](CC(=O)O)C(=O)N(C)[C@@H](Cc1ccccc1)C(N)=O ({C18 diacid-γGlu-AEEA-AEEA}-D[sY]LGWQ[dNMeD][NMeF]-NH2) | EC50: 135
